- Test system: Plasmodium falciparum Sir2 (PF13_0152, Sir2A)
- test-details: pfSir2 binders on small-molecule microarrays, primary screen, biochemical, small-molecule microarray, 635 nm fluorescence (AID 1098);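 note: score merges spot fluorescence intensity with its signal-to-noise ratio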
- measurement-conditions: small-molecule microarray binding, fluorescence 635 nm; higher = more signal
Measured composite z-score, listed per entry for reference.
Reply: number alone, nothing else.

molecule	result-number
C=CCNC(=O)[C@H]1[C@@H]2C(=O)O[C@@H](c3ccccc3)[C@@H](c3ccccc3)N2[C@@H](c2ccc(O)cc2)[C@]12C(=O)Nc1ccccc12	0.524
O=C1c2ccccc2[C@](Cc2ccccc2I)(C(=O)NCCN2CCOCC2)[C@H](c2ccc(CO)cc2)N1Cc1ccccc1C(F)(F)F	0.655
COc1ccc([Si](C)(C)[C@H]2[C@H](CC(=O)N3CCC[C@H]3CO)O[C@@]3(C(=O)N(C)c4c(Br)cc(C)cc43)[C@@H]2C)cc1	1.91
CCCCCN1CC=CC23O[C@@H]4/C=C\CCCOC(=O)C4[C@H]2C(=O)N(CCO)[C@@H]3C1=O (some centres not stated)	1.14
O=C(c1ccccc1)N1Cc2ccccc2C[C@@]2(N=C(c3ccc(OCCCO)cc3)O[C@H]2c2ccccc2)C1=O	1.26

We now examine a further molecule.
Exercise: Give the reported value of composite z-score for this record: CC(C)C(=C=CC[C@H](O)c1cccc(OCCO)c1)C[C@H](O)c1ccccn1
Key: 0.406

---

Listed here are compounds together with their documented z-score.
- test-details: inhibitors of hydroxyurea-induced Chk1 phosphorylation, primary screen, imaging, HeLa, phospho-Chk1 nuclear intensity (AID 1187); note: test concentration not given here
- measurement-conditions: hydroxyurea-induced phospho-Chk1 immunofluorescence imaging, higher = more signal
Please give the numeric answer without any surrounding text.

Exercise: Assign z-score to the following record: CN(C)CCCCNC(=O)[C@H]1C[C@H]2C(=O)N[C@@H](CCCCN(C)C)C(=O)N2[C@H]1c1ccc(O)cc1
Key: -1.46

Exercise: State its z-score for this compound: COc1cccc(C)c1NC(=O)O[C@H]1[C@H](OC(=O)Nc2ccccc2)[C@@H](OC(=O)Nc2ccccc2)[C@@H](OC)O[C@@H]1CO
Key: -0.515

Exercise: Give the reported z-score for this compound. CC[C@@H](O[Si](C#C[Si](C(C)C)(C(C)C)C(C)C)(C(C)C)C(C)C)c1cn([C@H](C)c2ccccc2)nn1
Key: -0.469

---

- system: Pro-neuregulin-1, membrane-bound isoform (Homo sapiens) (UniProt Q02297)
- Sequence (Q02297 whole entry, looked up, canonical isoform): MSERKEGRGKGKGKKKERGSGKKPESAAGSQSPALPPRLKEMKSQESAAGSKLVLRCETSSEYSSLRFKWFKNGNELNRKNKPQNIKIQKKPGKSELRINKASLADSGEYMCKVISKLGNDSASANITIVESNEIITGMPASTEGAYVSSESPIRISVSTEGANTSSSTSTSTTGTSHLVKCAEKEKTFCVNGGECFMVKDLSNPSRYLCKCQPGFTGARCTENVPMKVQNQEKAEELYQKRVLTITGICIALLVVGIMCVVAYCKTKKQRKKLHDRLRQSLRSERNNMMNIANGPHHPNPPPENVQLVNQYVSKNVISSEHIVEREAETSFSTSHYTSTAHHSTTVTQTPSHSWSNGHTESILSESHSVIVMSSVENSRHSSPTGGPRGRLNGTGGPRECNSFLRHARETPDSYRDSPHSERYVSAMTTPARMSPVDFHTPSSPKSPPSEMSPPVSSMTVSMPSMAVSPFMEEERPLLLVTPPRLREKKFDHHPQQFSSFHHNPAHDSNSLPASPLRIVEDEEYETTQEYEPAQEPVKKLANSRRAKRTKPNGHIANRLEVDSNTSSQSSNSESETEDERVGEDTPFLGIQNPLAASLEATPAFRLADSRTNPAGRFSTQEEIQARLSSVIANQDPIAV
- test-details: NRG1 binders on small-molecule microarrays, primary screen, psychiatric disease protein project, biochemical, small-molecule microarray, fluorescence 635/667 (AID 1075);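 note: score combines 667 nm spot fluorescence with signal to noise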
- measurement-conditions: NRG1 binding, 635 nm fluorescence, higher = more signal
Output true (1) for composite z-score not less than 0.7; output false (0) otherwise.

> print(dat)
                                   compound  answer.label
1  CCCCC(=C=CC[C@H](O)c1cccc(OCCO)c1)C[C@H](O)c1cc(Cl)cc(Cl)c1O     false (0)
2  CCCCCCc1nc(-c2ccc(OC)nc2)c(C)c2c1[Si](C(C)C)(C(C)C)OC2     false (0)
3  CC(C)c1ccc(NN2C(C(O)C3CCCCC3)C=CC3C(=O)N(c4ccccc4)C(=O)C32)cc1 (stereo not drawn)      true (1)
4  COC(=O)[C@@]1(Cc2ccc(F)cc2)[C@H]2c3cc(C(=O)N(C)C)n(Cc4ccc(C(F)(F)F)nc4)c3C[C@H]2CN1C(=O)c1ccccc1      true (1)
5  O=C(NCC(F)(F)F)[C@@H]1c2ccccc2C(=O)N(Cc2cc(C(F)(F)F)cc(C(F)(F)F)c2)[C@H]1c1ccc(CO)cc1      true (1)

Exercise: Check this compound for composite z-score at or above 0.7: Cc1ccc(N2C(=O)c3ccccc3[C@@H](C(=O)NCCN3CCOCC3)[C@@H]2c2ccc(CO)cc2)nc1
Key: false (0)

Exercise: Please tell me: is the compound CCCC[C@@H](O)C1=C(C)Cn2c(=O)n(-c3ccccc3)c(=O)n2[C@H]1CO at or over 0.7 in terms of composite z-score?
Key: false (0)

---

- system: Torsin-1A-interacting protein 2 (Homo sapiens)
- test-details: LULL1 binders on small-molecule microarray, primary screen, cell lysate, human LULL1 lysate, 635/667 nm fluorescence (AID 1092);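 note: probe is lysate of COS7 cells overexpressing human LULL1; score merges per-feature 667 nm fluorescence with signal-to-noise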
- measurement-conditions: hLULL1 lysate binding, 635 nm fluorescence, higher = more signal
Below is a list of entries, each paired with its recorded composite z-score value.

Below are worked cases with known answers.
molecule	system	composite z-score
CN(C)CCCC[C@@H]1NC(=O)[C@H]2C[C@@H](C(=O)NCCCCCCNC(=O)CS)[C@@H](c3cccc(OCCO)c3)N2C1=O	Torsin-1A-interacting protein 2 (Homo sapiens)	0.935
C=CCOC(=O)[C@H]1[C@@H]2C(=O)O[C@@H](c3ccccc3)[C@@H](c3ccccc3)N2[C@@H](c2ccc(OCCOC(=O)[C@H]3C[C@H]4C(=O)NCC(=O)N4[C@H]3c3cccc(OCCO)c3)cc2)[C@]12C(=O)Nc1ccc(I)cc12	Torsin-1A-interacting protein 2 (Homo sapiens)	2.78
CCCCN1CC=CC23O[C@@H]4/C=C\CCC(C)OC(=O)C4[C@H]2C(=O)N(CCO)[C@@H]3C1=O (stereo partly drawn)	Torsin-1A-interacting protein 2 (Homo sapiens)	3.4
CCCC=C(CCC)[C@@H](NC(=O)c1ccc(C(=O)OC)cc1)c1ccc(C(=O)OC)cc1	Torsin-1A-interacting protein 2 (Homo sapiens)	2.85
CO[C@H]1O[C@H](CO)[C@@H](OC(=O)CCc2ccccc2)[C@@H]2OC(=O)[C@@H](Cc3ccc4ccccc4c3)C/C=C/C[C@H](Cc3ccc4ccccc4c3)C(=O)O[C@@H]12	Torsin-1A-interacting protein 2 (Homo sapiens)	0.784

Exercise: Consider the molecule C=CCNC(=O)[C@@H]1[C@H]2C(=O)O[C@H](c3ccccc3)[C@H](c3ccccc3)N2[C@H](c2ccc(OCCO)cc2)[C@@]12C(=O)Nc1ccc(C#CCNC(N)=O)cc12 and give its recorded composite z-score.
Key: 1.8

Exercise: Identify measured composite z-score associated with COC(=O)[C@]1(Cc2ccccc2CN=[N+]=[N-])N=C(c2ccc(OCCCO)cc2)O[C@@H]1c1ccccc1N=[N+]=[N-]
Key: 1.22

Exercise: Supply composite z-score value. Item: CCCC[C@@H](O)C1=C(C)Cn2c(=O)n(-c3ccccc3)c(=O)n2[C@H]1CO
Key: -0.249

---

A collection of compounds and their measured composite z-score
- test-details: small-molecule microarray binders of probe aShh, primary screen, biochemical, biotinylated probe, 635/667 nm fluorescence (AID 1114);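 note: probe is biotin-labelled aShh protein from a stem cell growth factor screen; measures binding of labelled protein to compounds printed on the slide; score merges feature fluorescence at 667 nm with signal-to-noise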
- measurement-conditions: higher = more signal
When you answer, write just the number.

Use these answered entries as a reference point.
smiles-data	composite z-score
CCOC(=O)C[C@H]1[C@H](OC(=O)c2cc3ccccc3oc2=O)[C@@H](NC(=O)c2ccc(-c3ccccc3)cc2)c2cc(OCCCO)ccc2N1C(=O)Cc1ccc(OC)cc1	-0.0035
COCCOC(=O)N1C(=O)[C@@]2(c3cc(C#CC4=CCCCC4)ccc31)[C@H](c1ccc(O)cc1)N1[C@H](c3ccccc3)[C@H](c3ccccc3)OC(=O)[C@H]1[C@@H]2C(=O)N1CCc2cc(OC)c(OC)cc2C1	0.0796

Let us examine a further case.
Exercise: Please list composite z-score recorded for the compound C=CCNC(=O)[C@@H]1[C@H]2C(=O)O[C@H](c3ccccc3)[C@H](c3ccccc3)N2[C@H](c2ccc(O)cc2)[C@@]12C(=O)Nc1ccc(C#CC3=CCCCC3)cc12
Key: 1.85

---

Listed compounds paired with reported composite z-score
- test-details: small-molecule microarray binders of probe aShh, primary screen, biochemical, biotinylated probe, 635/667 nm fluorescence (AID 1114);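 note: probe is biotin-labelled aShh protein from a stem cell growth factor screen; measures binding of labelled protein to compounds printed on the slide; score merges feature fluorescence at 667 nm with signal-to-noise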
- measurement-conditions: higher = more signal
The answer should be written as a number, with no unit following it.

compound	result-number
COCCCNC(=O)[C@@]1(Cc2ccccc2I)c2ccccc2C(=O)N(C2CCCCC2)[C@H]1c1ccc(CO)cc1	0.313
COC(=O)[C@@]1(Cc2ccc(F)cc2)[C@H]2c3cc(C(=O)N(C)C)n(Cc4cccc5ccccc45)c3C[C@H]2CN1C(=O)c1ccccc1	1.76
CO[C@H]1O[C@H](CO)[C@@H](OC(=O)Nc2cccc(F)c2)[C@H](OC(=O)Nc2ccc3c(c2)OCO3)[C@@H]1OC(=O)Nc1ccc2c(c1)OCO2	0.214
CO[C@H]1O[C@H](CO)[C@@H](OC(=O)Nc2cccc(F)c2)[C@H](OC(=O)c2cc3ccccc3[nH]2)[C@H]1OC(=O)c1cc2ccccc2[nH]1	-0.138
CCOC(=O)C[C@H]1[C@H](OC(=O)Cc2ccc3c(c2)OCO3)[C@@H](NC(=O)CC(C)C)c2cc(OCCCO)ccc2N1C(=O)c1ccc2ccccc2n1	-0.221
CC(CO)N1C(=O)[C@@H]2[C@H]3C(=O)OCC=C[C@H]3OC23C=CCN(c2ccc4ccccc4c2)C(=O)[C@@H]13 (stereo partly drawn)	-0.0035
O=C1C2C=CC(C(O)C3CCCCC3)N(Nc3ccccc3F)C2C(=O)N1c1ccccc1 (stereo not drawn)	-0.0054
COC(=O)[C@@]1(Cc2ccc(F)cc2)[C@H]2c3cc(C(=O)N4CCCC4)n(CCSCCO)c3C[C@H]2CN1C(=O)c1ccccc1	1.08
C=CCOC(=O)[C@@H]1[C@H]2C(=O)O[C@H](c3ccccc3)[C@H](c3ccccc3)N2[C@H](c2ccc(OCCOC(=O)[C@@H]3C[C@@H]4C(=O)N[C@@H](CC(C)C)C(=O)N4[C@@H]3c3ccc(O)cc3)cc2)[C@@]12C(=O)Nc1ccc(I)cc12	-0.0793
CC(C)c1ccc(NN2C(C(O)C3=C[C@H]4C[C@@H](C3)C4(C)C)C=CC3C(=O)N(c4ccccc4)C(=O)C32)cc1 (stereo partly drawn)	0.907

Exercise: Report measured composite z-score; entry is COc1ccc([Si](C)(C)[C@H]2[C@H](CCO)O[C@@]3(C(=O)N(Cc4ccccc4)c4ccc(NC(=O)[C@H](C)O)cc43)[C@@H]2C)cc1
Key: -0.138

Exercise: Give the reported value of composite z-score for this record: CC(C)C[C@@H]1NC(=O)[C@H]2C[C@@H](C(=O)O)[C@@H](c3cccc(OCCO)c3)N2C1=O
Key: -0.0289

Exercise: For the compound C=CC[C@@]1(C(=O)NCCCOC)N=C(c2ccc(OCCCO)cc2)O[C@@H]1c1ccccc1CN=[N+]=[N-] , give its measured composite z-score value.
Key: -0.13

Exercise: For the compound Cc1c(NC(=O)/C(C#N)=C/C=C/c2ccc([N+](=O)[O-])cc2)c(=O)n(-c2ccccc2)n1C , give its reported composite z-score.
Key: -0.0769

Exercise: Identify the reported composite z-score for the following entry. CN1C(=O)C2CC=C(C3=CCO[C@@H]3[C@H]3CCCN3S(=O)(=O)c3ccccc3[N+](=O)[O-])CC2C1=O (stereo partly drawn)
Key: -0.2

Exercise: Report measured composite z-score; entry is C=C(COC)C(=O)CC[C@@H](OC(=O)c1ccccc1-c1ccccc1C(=O)O)c1ccccc1OCCO
Key: -0.17

Exercise: Identify the reported composite z-score for the following entry. C=CCN1C(=O)[C@]2(O[C@H](CCO)[C@@H]([Si](C)(C)c3ccc(OC)cc3)[C@@H]2C)c2cc(N3C(=O)c4ccccc4Oc4ccccc43)ccc21
Key: -0.0709

Exercise: Give the value of composite z-score reported for the following: COCCOC(=O)N1C(=O)[C@@]2(c3cc(C#CCCO)ccc31)[C@H](c1ccc(O)cc1)N1[C@H](c3ccccc3)[C@H](c3ccccc3)OC(=O)[C@H]1[C@@H]2C(=O)NC[C@H](O)c1ccccc1
Key: 0.204
